Molecular target: T1, hu-CD74 antigen (R&D SYSTEMS catalog #3590-CD-050) (human, UniProt P04233-2 73-232, limits assumed)
T1 construct: Bought antigen; also called rhCD74; human CD74
T1 sequence (looked up): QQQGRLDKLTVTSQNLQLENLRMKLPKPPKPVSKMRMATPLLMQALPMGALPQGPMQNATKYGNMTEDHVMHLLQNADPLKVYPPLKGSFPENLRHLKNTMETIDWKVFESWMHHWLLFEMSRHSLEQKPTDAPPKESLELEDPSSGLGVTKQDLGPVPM
Assay: SPR (Biacore T200), captured on anti-human Fc, rhCD74 analyte
Procedure: Kinetic binding experiments were performed at 25° C. using 1×HBS-EP+buffer. Kinetic data was collected by injecting test and control antibodies at concentrations of 10, 5 and 2.5 μg/mL for 12 s at a flow rate of 10 μl/min on flow cells 2, 3 and 4 respectively, followed by a buffer wash for 30 s at the same flow rate. […]
koff below 0.0008 s⁻¹ gives criterion not met; koff at or above it gives criterion met.

Examples with answers:
binder: 1251-C03 heavy chain paired with VL SEQ ID NO: 272 (antibody, V domains shown) VH: QVQLVESGGGVVQPGRSLRLSCAASGFNFSSYGMHWVRQAPDKGLEWVAVIWYDGSIKNYADSVKGRFTISRDNSKNTLYLQMNSLRAEDTAVYYCARGGALMRGEFSGHDVWGQGTTVTVSS VL: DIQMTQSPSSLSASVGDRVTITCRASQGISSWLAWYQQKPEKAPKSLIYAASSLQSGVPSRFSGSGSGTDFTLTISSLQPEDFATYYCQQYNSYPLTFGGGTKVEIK
answerLabel: criterion met

binder: 1251-F07 heavy chain paired with VL SEQ ID NO: 272 (antibody, V domains shown) VH: QVQLVESGGGVVQPGRSLRLSCAASGFTFSSHGMHWVRQAPDKGLEWVAVIWDDGSNEVYADSVKGRFTISRDNSKNTLYLQMNSLRAEDTAVYYCARGGTRIRGLRYGTDVWGQGTTVTVSS VL: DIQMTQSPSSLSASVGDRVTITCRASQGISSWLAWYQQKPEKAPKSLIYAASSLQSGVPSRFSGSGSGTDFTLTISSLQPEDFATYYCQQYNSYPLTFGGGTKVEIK
answerLabel: criterion not met

binder: 1275-D01 light chain paired with HC 1251-A06 (SEQ ID NO: 310) (antibody, human IgG1, V domains shown) VH: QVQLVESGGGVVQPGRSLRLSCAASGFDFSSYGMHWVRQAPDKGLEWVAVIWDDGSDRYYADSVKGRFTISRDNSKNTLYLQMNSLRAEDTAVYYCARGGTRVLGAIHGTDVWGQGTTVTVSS VL: DIQMTQSPSSLSASVGDRVTITCRASQGIGRWLAWYQQKPEKAPKSLIYGRSSLQSGVPSRFSGSGSGTDFTLTISSLQPEDFATYYCQQYNIYPLTFGGGTKVEIK
answerLabel: criterion not met

Here is the next item to consider.
*Q* State whether the measured koff reaches 0.0008 s⁻¹, counting equality as reaching it, for 1275-D10 light chain paired with HC 1251-A06 (SEQ ID NO: 310) (antibody, human IgG1, V domains shown) VH: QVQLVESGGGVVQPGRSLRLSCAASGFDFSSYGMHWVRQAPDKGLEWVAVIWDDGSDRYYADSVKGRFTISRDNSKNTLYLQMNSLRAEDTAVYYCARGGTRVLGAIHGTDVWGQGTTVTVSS VL: DIQMTQSPSSLSASVGDRVTITCRASQGVFSWLAWYQQKPEKAPKSLIYNATQLQSGVPSRFSGSGSGTDFTLTISSLQPEDFATYYCQQYYYYPLTFGGGTKVEIK
*A* criterion not met

Attribution: patent US20170253656A1
